- Test protocol: Quantitative High-Throughput drug screen in 47 multiple myeloma cell lines against the NCATS MIPE library collection: KMS28BM_JCRB cell viability assay (AID 1919874); further: nearly all actives have a fitted effect of over 35% in size
- Particulars: CellTiter-Glo ATP, 48 h; series mostly up to 45.8 µM
Inconclusive results are not listed. Active and inactive are the calls of the source. The call rests on the fitted dose curve; in most records, active means well fitted cell-killing curve with a large enough effect; inconclusive means small, poorly fitted or top-dose-only effect, or effect the other way; inactive means no such curve, though single readings can be large or run the other way.
Classes used: Y for active, N for inactive

CC1(C)O[C@@H]2C[C@H]3[C@@H]4CCC5=CC(=O)C=C[C@]5(C)[C@@H]4[C@@H](O)C[C@]3(C)[C@]2(C(=O)CO)O1	N
C[C@@H]1[C@H](C)CC[C@]2(C(=O)O)CC[C@]3(C)C(=CC[C@@H]4[C@@]5(C)C[C@@H](O)[C@H](O)[C@@](C)(CO)[C@H]5CC[C@]43C)[C@@H]12	N
COC1=C2C[C@@H](C)C[C@H](OC)[C@@H](O)[C@@H](C)C=C(C)[C@H](OC(N)=O)[C@@H](OC)C=CC=C(C)C(=O)NC(=CC1=O)C2=O	Y
Nc1ccn(C2CO[C@H](CO)O2)c(=O)n1 (some centres not stated)	N
CCNC(=O)Nc1ccc(-c2nc3c(c(N4CCOC[C@H]4C)n2)CCN(C2COC2)C3)cc1	Y
NC1=N[C@H]2[C@H](CS[C@H]2CCCCC(=O)O)N1	N
COc1ccc(CCC(=O)c2c(O)cc(O[C@@H]3O[C@H](CO)[C@@H](O)[C@H](O)[C@@H]3O[C@@H]3O[C@@H](C)[C@H](O)[C@@H](O)[C@@H]3O)cc2O)cc1O	N

---

- Test protocol: qHTS Screen of the MIPE 4.0 Collection Against Ewings Sarcoma (TC71) (AID 1259253); further: nearly all actives have a fitted effect of over 40% in size; further: potency means the concentration at half of the fitted maximal effect
- Particulars: TC71 Ewing sarcoma viability, CellTiter-Glo, 48 h; series mostly up to 45.8 µM
Inconclusive results are not listed. Active and inactive are the calls of the source. Calls follow the shape of the dose curve; as a rule, active = well fitted inhibition curve with a large enough effect; inconclusive = small, poorly fitted or top-dose-only effect; inactive = no such curve, though single readings can be large or run the other way.
Endpoint label: Potency

CC(=O)N[C@H]1[C@@H]([C@H](O)[C@H](O)CO)OC(C(=O)O)=C[C@@H]1N=C(N)N	inactive
CCN1CCN(C(=O)N[C@H](C(=O)N[C@@H]2C(=O)N3C(C(=O)O)=C(CSc4nnnn4C)CS[C@@H]23)c2ccc(O)cc2)C(=O)C1=O	inactive
C[C@H](NCc1ccc2c(c1)nc(NC(=O)c1ccc(-c3cn[nH]c3)s1)n2CCc1ccccc1)C(C)(C)C	1480 nM (active)
NC[C@H]1O[C@H](O[C@H]2[C@@H](O)[C@@H](O[C@H]3O[C@H](CO)[C@@H](O)[C@H](N)[C@@H]3O)[C@H](N)C[C@@H]2N)[C@H](N)C[C@H]1O	inactive
CC(N[C@H]1CCCC[C@H]1NC(=O)c1ccc(Cl)cc1)c1cccc2ccccc12 (some centres not stated)	inactive
C=CCNc1c(O)cc2c(O)c1C[C@@H](C)C[C@H](OC)[C@@H](O)[C@@H](C)C=C(C)[C@H](OC(N)=O)[C@@H](OC)C=CC=C(C)C(=O)N2	2350 nM (active)
C[C@@H]1CC[C@@]2(OC1)OC1CC3C4CC=C5CC(O)CCC5(C)C4CCC3(C)C1[C@@H]2C (some centres not stated)	inactive
C=CC(=O)Nc1cc(NC(=O)c2ccc(C)c(NC(=O)c3ccno3)c2)cc(C(F)(F)F)c1	20900 nM (active)
O=C(O)c1ccc(Nc2ncc3c(n2)-c2ccc(Cl)cc2C(c2c(F)cccc2F)=NC3)cc1	833 nM (active)
C[C@@]12C(=O)OC(=O)[C@@]1(C)C1CCC2O1	4180 nM (active)
CCCCCCCCCCCCc1ccc(S(=O)(=O)Nc2nncs2)cc1	inactive
COc1cccc2c1C(=O)c1c(O)c3c(c(O)c1C2=O)C[C@@](O)(C(=O)CO)C[C@H]3O[C@H]1C[C@H](N)[C@H](O)[C@H](C)O1	74.3 nM (active)
c1cc(CN2CCCNCCNCCCNCC2)ccc1CN1CCCNCCNCCCNCC1	inactive
CC(C)OC(=O)[C@H](C)N[P@](=O)(OC[C@H]1O[C@@H](n2ccc(=O)[nH]c2=O)[C@](C)(F)[C@H]1O)Oc1ccccc1	inactive
O=c1ccn([C@@H]2O[C@H](CO)[C@H](O)[C@@H]2F)c(=O)[nH]1	3320 nM (active)
Oc1ccc([C@@H]2Oc3ccc(O)cc3[C@@H]3CCC[C@@H]32)cc1	26400 nM (active)
Cn1cc(CNCC2CCN(c3ncc(C(=O)NO)cn3)CC2)c2ccccc21	33.2 nM (active)

Hello, the source for this data is PubChem BioAssay (NCATS), in case you need it.
